# assayDetails: chemical genetic growth profiling, strain panel (AID 1159580);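 also: tested at 20 µM; growth read once vehicle control cultures reached saturation at 30 °C; 1 = growth at the plate median or of vehicle wells; lower values mean less growth of the strain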
# measurementParameters: S. cerevisiae deletion strains, growth OD, locus YLR320W, strain mms22, hits give low values
In all, about 5,500 compounds went through this assay and about 2,000 (36%) were called active. About 18% were inconclusive and are not listed. This is one part of the list.
Reported values of normalized growth for individual entries
Please state the value as a number alone, without comment.

{"compound": "CC(=O)OCC[N+](C)(C)C", "normalized growth": 1.1}
{"compound": "COP(=O)(OC)OC=C(Cl)Cl", "normalized growth": 1.01}
{"compound": "C[N+](C)(C)CCOC(N)=O", "normalized growth": 1.03}

Ask: Which normalized growth is listed for COc1cc2c(cc1OC)Cc1cc(OC)c(OC)cc1Cc1cc(OC)c(OC)cc1C2 ?
Result: 1.03

Ask: normalized growth for Cc1cc(O)c(C=O)c(O)c1C(=O)O ?
Result: 1.05

Ask: So what does the record say about normalized growth for OCCN1C[C@@H](O)[C@@H](O)C(O)C1CO (stereo partly drawn) ?
Result: 1.01

Ask: Item under review: CCOC(=O)c1c(C)c(Cl)c(O)c(Cl)c1O . Reported normalized growth?
Result: 0.27

Ask: May I ask what normalized growth has been recorded for Cc1cc(O)c(C)c(O)c1C(=O)O ?
Result: 0.983
